The measurements presented in this section are drawn from ChEMBL document CHEMBL1132315.

assay: The effective concentration for 50% glutamate response was measured on Group I Metabotropic glutamate receptor; format: functional
reportedProperty: EC50 (µM)
# output: bare number, implied unit µM

# annotated cases, reported EC50 shown
Give reported EC50 value for N[C@H](C(=O)O)c1cc(O)cc(O)c1
6.6

Report measured EC50; entry is N[C@@]1(C(=O)O)CC[C@@H](C(=O)O)C1
9.3

Provide one value: measured EC50 of N[C@H](C(=O)O)c1cc(O)no1 [IBOTENIC ACID]
6

Next:
Consider the compound O=C(O)[C@H]1C[C@H](C(=O)O)N1 . State its measured EC50.
189

# return recorded EC50 for input N[C@@H](C(=O)O)[C@H]1CC1C(=O)O (single isomer, unassigned)
5

Identify the reported EC50 for the following entry. NC1(C(=O)O)CC2CC1C2C(=O)O (stereo in doubt; 21)
121

Identify measured EC50 corresponding to N[C@]1(C(=O)O)CC[C@H](C(=O)O)C1
127

Recall and state the measured EC50 for NC1(C(=O)O)CC2CC1C2C(=O)O (stereo in doubt; 22) .
232

Item N[C@@H](Cn1oc(=O)[nH]c1=O)C(=O)O [QUISQUALATE] : provide EC50
0.9

---

assay: The effective concentration for 50% glutamate response was measured on Group II Metabotropic glutamate receptor; type: functional
reportedProperty: pEC50
pEC50 here: minus log base 10 of the concentration, concentration in moles per litre.

Consider the compound N[C@@]1(C(=O)O)CC[C@H]2[C@H](C(=O)O)[C@H]21 and give its recorded pEC50.
7.49

New cases:
Could you please provide reported pEC50 for N[C@@H](C(=O)O)[C@H]1CC1C(=O)O (single isomer, unassigned) ? Thanks!
6.52

---

assay: Percentage of glutamate maximal response was measured on Group II Metabotropic glutamate receptor; format: functional
Catalogue of compounds with associated EC50
The answer is to be given in µM; state only the numeric part.

Retrieve EC50 measured for NC(C(=O)O)C1[C@@H](C(=O)O)[C@@H]1C(=O)O (some centres not stated) and print it.
0.1

# context switch: different compound, same EC50
Annotate the compound NC1(C(=O)O)C2CCC1C(C(=O)O)C2 (configuration not stated) with its measured EC50.
30

---

assay: The effective concentration for 50% glutamate response was measured on Group I Metabotropic glutamate receptor; format: functional
reportedProperty: pEC50
Note on units: pEC50 is unitless, being -log10 of a concentration expressed in mol/L.

// Input: N[C@@H](CCC(=O)O)C(=O)O . Output its pEC50 only.
5.31

Provide pEC50 value for the following compound: NC1(C(=O)O)CC2CC1C2C(=O)O (stereo in doubt; 12)
5.80

Given N[C@@H](C(=O)O)[C@@H]1CC1C(=O)O (single isomer, unassigned) , respond with its pEC50.
4.70

---

assay: The effective concentration for 50% glutamate response was measured on Group II Metabotropic glutamate receptor; type: functional
pEC50: −log10 of the molar value.
Quick rule for you: pEC50 at 5 or higher means condition met, lower means condition not met.

Identify whether the reported pEC50 of the following compound is 5 or greater: N[C@@]1(C(=O)O)CN[C@@H](C(=O)O)C1
condition met

Identify whether the reported pEC50 of the following compound is 5 or greater: N[C@@H](CCC(=O)O)C(=O)O
condition met

Would you say NC1(C(=O)O)CC2CC1C2C(=O)O (stereo in doubt; 22) shows pEC50 at minimum 5?
condition not met

Does the reported pEC50 for N[C@]1(C(=O)O)CC[C@H](C(=O)O)C1 fall at or above the 5 mark?
condition not met

Does the reported pEC50 for N[C@H](C(=O)O)c1cc(O)no1 fall at or above the 5 mark?
condition not met

Please check the record N[C@@H](Cn1oc(=O)[nH]c1=O)C(=O)O [QUISQUALATE] and state if its pEC50 is at or above 5.
condition not met

---

Property: EC50; scope: individual compounds
assay: The effective concentration for 50% glutamate response was measured on Group I Metabotropic glutamate receptor; format: functional

Please give the documented EC50 of N[C@@]1(C(=O)O)CN[C@@H](C(=O)O)C1
> 1000 µM

Give me measured EC50, please, for this compound: N[C@@]1(C(=O)O)CC[C@H]2[C@H](C(=O)O)[C@H]21
> 1000 µM

Complete the entry with EC50 for N[C@@]1(C(=O)O)CC[C@H](C(=O)O)C1
> 300 µM

---

assay: The effective concentration for 50% glutamate response was measured on Group II Metabotropic glutamate receptor; format: functional
reportedProperty: pEC50
Note on pEC50: it is the negative log10 of concentration, concentration in mol/L.

Return reported pEC50. Input compound: NC1(C(=O)O)CC2CC1C2C(=O)O (stereo in doubt; 21)
4.27

Entry N[C@@]1(C(=O)O)CC[C@@H](C(=O)O)C1 needs its pEC50 filled in; supply it.
4.74

Give a short answer stating reported pEC50 for N[C@@]1(C(=O)O)CC[C@H](C(=O)O)C1 .
4.89

In the following, a different compound is considered.
Indicate the recorded pEC50 value for this compound: NC1(C(=O)O)CC2CC1C2C(=O)O (stereo in doubt; 12)
6.48
